Hey, just so you know, these numbers are from patent US10501449B2.

biological target: hERG channels (Homo sapiens (Human)); experiment: hERG Manual Patch Clamp Assay; assay type: cell-based; settings: human, HEK 293 cells stably expressing hERG channels, pH 7.4, 1 uM, read-out: hERG EP % Inh @ 1 uM
Sequence (Q12809 whole entry): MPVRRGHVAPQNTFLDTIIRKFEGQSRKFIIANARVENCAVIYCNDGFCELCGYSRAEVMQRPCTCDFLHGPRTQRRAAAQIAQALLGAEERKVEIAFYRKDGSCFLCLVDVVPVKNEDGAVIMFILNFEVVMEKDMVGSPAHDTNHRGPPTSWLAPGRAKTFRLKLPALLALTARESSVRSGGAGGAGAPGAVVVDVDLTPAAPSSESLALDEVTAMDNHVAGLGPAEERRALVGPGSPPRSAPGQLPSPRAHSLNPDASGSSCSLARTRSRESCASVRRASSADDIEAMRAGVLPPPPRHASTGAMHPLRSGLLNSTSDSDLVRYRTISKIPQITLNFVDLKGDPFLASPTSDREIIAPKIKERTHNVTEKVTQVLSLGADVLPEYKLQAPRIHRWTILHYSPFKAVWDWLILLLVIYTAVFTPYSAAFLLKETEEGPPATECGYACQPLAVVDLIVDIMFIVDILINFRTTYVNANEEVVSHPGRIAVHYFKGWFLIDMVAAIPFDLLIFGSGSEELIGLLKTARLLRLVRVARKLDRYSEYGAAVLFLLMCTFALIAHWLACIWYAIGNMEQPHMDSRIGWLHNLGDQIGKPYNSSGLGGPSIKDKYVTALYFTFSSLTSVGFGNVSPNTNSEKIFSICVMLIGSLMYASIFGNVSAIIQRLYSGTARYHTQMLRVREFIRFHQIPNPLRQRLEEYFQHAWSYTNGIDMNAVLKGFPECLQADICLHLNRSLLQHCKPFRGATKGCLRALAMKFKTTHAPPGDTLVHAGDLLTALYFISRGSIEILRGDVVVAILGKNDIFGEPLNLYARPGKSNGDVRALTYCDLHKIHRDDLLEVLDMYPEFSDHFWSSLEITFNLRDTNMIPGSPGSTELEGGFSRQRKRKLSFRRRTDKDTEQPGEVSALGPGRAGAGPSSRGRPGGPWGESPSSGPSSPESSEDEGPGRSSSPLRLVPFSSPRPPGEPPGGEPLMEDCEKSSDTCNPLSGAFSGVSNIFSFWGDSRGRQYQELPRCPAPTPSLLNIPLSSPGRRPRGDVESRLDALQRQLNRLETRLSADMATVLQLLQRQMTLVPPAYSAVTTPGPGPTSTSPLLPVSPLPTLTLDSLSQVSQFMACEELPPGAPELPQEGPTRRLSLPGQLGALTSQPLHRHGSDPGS
# cutoff 20% applies to inhibition at 1 µM; >= gives Yes, < gives No

Assess whether reported inhibition at 1 µM for Cc1nc(-n2ncc(CN3C[C@@H](c4ccc5c(c4C)COC5=O)N[C@@H](C)C3)n2)ncc1C#N sits at 20% or higher.
No

Assess whether reported inhibition at 1 µM for Cc1cc(-n2cc(CN3CCN[C@H](c4ccc5c(c4)COC5=O)C3)cn2)ncc1C#N sits at 20% or higher.
No

Assess whether reported inhibition at 1 µM for Cc1c([C@@H]2CN(Cc3cnc(-n4cnc(C#N)c4)nc3)CCN2)ccc2c1COC2=O sits at 20% or higher.
Yes

Assess whether reported inhibition at 1 µM for Cc1c([C@@H]2CN(Cc3ccc(-n4cnc(C#N)c4)nc3)CCO2)ccc2c1COC2=O sits at 20% or higher.
No

Assess whether reported inhibition at 1 µM for CCOc1cc(-n2cc(CN3CCN[C@H](c4ccc5c(c4C)COC5=O)C3)cn2)ncc1C#N sits at 20% or higher.
Yes

Assess whether reported inhibition at 1 µM for Cc1cc(-n2cc(CN3CC(c4ccc5c(c4C)COC5=O)NC(C(F)F)C3)cn2)ncc1C#N (single isomer, unassigned) sits at 20% or higher.
No

Assess whether reported inhibition at 1 µM for COc1cc(-n2cc(CN3C[C@@H](c4ccc5c(c4C)COC5=O)N[C@@H](C)C3)n(C)c2=O)ccn1 sits at 20% or higher.
No

Assess whether reported inhibition at 1 µM for Cc1nn(-c2ncc(CN3CCN[C@H](c4ccc5c(c4C)COC5=O)C3)cn2)cc1C#N sits at 20% or higher.
No

Assess whether reported inhibition at 1 µM for COc1cc(-n2ncc(CN3C[C@@H](c4ccc5c(c4C)COC5=O)N[C@@H](C)C3)n2)ncc1C#N sits at 20% or higher.
No

Assess whether reported inhibition at 1 µM for COc1nc(-n2cnc(CN3C[C@@H](c4ccc5c(c4C)COC5=O)N[C@@H](C)C3)c2)ncc1C#N sits at 20% or higher.
No

Assess whether reported inhibition at 1 µM for Cc1cc(-n2cc(CN3CCN[C@H](c4ccc5c(c4C)COC5=O)C3)nn2)ncc1C#N sits at 20% or higher.
No

Assess whether reported inhibition at 1 µM for COc1cc(-c2cc(CN3C[C@@H](c4ccc5c(c4C)COC5=O)N[C@@H](C)C3)on2)ncc1C#N sits at 20% or higher.
No

Assess whether reported inhibition at 1 µM for Cc1cc(-n2cc(CN3CC(c4ccc5c(c4C)COC5=O)C(O)C(C)(C)C3)cn2)ncc1C#N (centres unmarked) sits at 20% or higher.
No

Assess whether reported inhibition at 1 µM for Cc1c([C@@H]2CN(Cc3cn(-c4ccc(C#N)cn4)cn3)CCO2)ccc2c1COC2=O sits at 20% or higher.
No

Assess whether reported inhibition at 1 µM for Cc1cc(-n2cc(CN3CC(F)CC(c4ccc5c(c4C)COC5=O)C3)nn2)ncc1C#N (single isomer, unassigned) sits at 20% or higher.
No

Assess whether reported inhibition at 1 µM for Cc1cc(-n2cc(CN3C[C@@H](c4ccc5c(c4C)COC5=O)N[C@@H](C)C3)cn2)ncc1C#N sits at 20% or higher.
No

Assess whether reported inhibition at 1 µM for Cc1c([C@@H]2CN(Cc3ccc(-n4cc(C#N)cn4)nc3)CCN2)ccc2c1COC2=O sits at 20% or higher.
Yes

Assess whether reported inhibition at 1 µM for COc1cc(-c2ccc(CN3CCN[C@H](c4ccc5c(c4C)COC5=O)C3)c(OC)n2)ncc1C#N sits at 20% or higher.
Yes

Assess whether reported inhibition at 1 µM for Cc1c([C@@H]2CN(Cc3cnn(-c4ccc5oc(=O)n(C)c5c4)c3)CCO2)ccc2c1COC2=O sits at 20% or higher.
No

Assess whether reported inhibition at 1 µM for Cc1cc(-n2cc(CN3CCCC(c4ccc5c(c4C)COC5=O)C3)cn2)ncc1C#N (single isomer, unassigned) sits at 20% or higher.
Yes

Assess whether reported inhibition at 1 µM for Cc1cc(-n2cc(CN3C[C@@H](c4ccc5c(c4C)COC5=O)N[C@@H](C)C3)n(C)c2=O)ccn1 sits at 20% or higher.
No

Assess whether reported inhibition at 1 µM for COc1nc(-n2cc(CN3CCN[C@H](c4ccc5c(c4C)COC5=O)C3)nn2)cc(C)c1C#N sits at 20% or higher.
No

Assess whether reported inhibition at 1 µM for Cc1c([C@@H]2CN(Cc3cn(-c4ccc(C(F)F)nc4)cn3)C[C@H](C)N2)ccc2c1COC2=O sits at 20% or higher.
Yes

Assess whether reported inhibition at 1 µM for Cc1cc(-n2cc(CN3CCO[C@H](c4ccc5c(c4C)COC5=O)C3)cn2)ccc1C#N sits at 20% or higher.
Yes

Assess whether reported inhibition at 1 µM for Cc1c([C@@H]2CN(Cc3cnn(-c4cc(N5CCOCC5)c(C#N)cn4)c3)CCN2)ccc2c1COC2=O sits at 20% or higher.
Yes

Assess whether reported inhibition at 1 µM for Cc1cc(-n2cc(CN3C[C@@H](c4ccc5c(c4C)COC5=O)OC3=O)cn2)ncc1C#N sits at 20% or higher.
Yes

Assess whether reported inhibition at 1 µM for Cc1cn(-c2ccc(CN3CCO[C@H](c4ccc5c(c4C)COC5=O)C3)cn2)cn1 sits at 20% or higher.
No

Assess whether reported inhibition at 1 µM for Cc1cc(-c2ncc(CN3CC[C@@H](O)[C@H](c4ccc5c(c4C)COC5=O)C3)s2)ncc1C#N sits at 20% or higher.
No
